Origin of the recorded values: paper doi:10.1101/2024.01.09.574928

Molecular target: T1, SCAF8-CID (human, UniProt Q9UPN6 1-139)
T1 sequence: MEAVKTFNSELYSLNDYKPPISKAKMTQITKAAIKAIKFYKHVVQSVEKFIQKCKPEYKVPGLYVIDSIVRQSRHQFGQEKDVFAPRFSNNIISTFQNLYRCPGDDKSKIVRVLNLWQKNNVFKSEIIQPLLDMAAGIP
Assay: competition FP
readout name: IC50 (nM)

[[record]]
binder = "GTGGG (ssDNA) [SCAF4_LS (D2_5nt)]"
readout_name = "IC50"
recorded_result = 1960

